# assaySystem: T1, monkey GPC3-His protein (monkey)
# T1 construct: Bought recombinant protein; also called monkey GPC3 protein
# assayName: ELISA, monkey GPC3-His coated;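 note: Plate-coated antigen at 1 µg/mL, antibody binding 2 h at 37 °C, detected with HRP-labeled secondary antibody and TMB, absorbance at 450 nm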
Below, each of the binders is paired with its reported OD450 at 1 nM value.
Field: numeric (OD450). Do not append units.

binder	OD450 at 1 nM, OD450
F3.38.7 (antibody, human IgG1, kappa, V domains shown, Human-murine chimeric antibody) VH: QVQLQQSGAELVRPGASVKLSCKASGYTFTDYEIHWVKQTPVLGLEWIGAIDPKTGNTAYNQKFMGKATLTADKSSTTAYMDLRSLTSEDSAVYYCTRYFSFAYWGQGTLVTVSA VL: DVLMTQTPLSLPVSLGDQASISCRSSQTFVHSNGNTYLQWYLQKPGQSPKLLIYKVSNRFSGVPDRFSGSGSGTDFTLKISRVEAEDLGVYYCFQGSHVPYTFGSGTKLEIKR	2.37

// next item, OD450 at 1 nM requested
Request: Which OD450 at 1 nM reading was recorded for the binder F1.92.17 (antibody, human IgG1, kappa, V domains shown, Human-murine chimeric antibody) VH: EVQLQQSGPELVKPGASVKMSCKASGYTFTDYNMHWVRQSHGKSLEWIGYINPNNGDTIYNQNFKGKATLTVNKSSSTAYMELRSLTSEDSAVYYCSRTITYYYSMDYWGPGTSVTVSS VL: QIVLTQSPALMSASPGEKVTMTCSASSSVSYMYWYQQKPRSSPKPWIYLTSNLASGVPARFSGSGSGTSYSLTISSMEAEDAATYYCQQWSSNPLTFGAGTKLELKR ?
Result: 0.64
